I'd be grateful if you could share measured ORYSAT herbicidal rating (rice tolerance) for these entries.
- Tested on: Oryza sativa, (L.) Tebonnet
- Assay text: Rice tolerance to post-transplant applications under flooded paddy conditions (Example 187), ORYSAT (Rice, Tebonnet)
- Experimental context: 0.1250 kg/ha, rated three to four weeks after treatment

Asked: Determine its reported ORYSAT herbicidal rating (rice tolerance): COC(=O)C(C)Oc1ccc(I)cc1-c1nsc2ccc(-n3c(=O)cc(C(F)(F)F)n(C)c3=O)cc12 (centres unmarked)
Given back: 4.0

Asked: Determine its reported ORYSAT herbicidal rating (rice tolerance): `Cn1c(C(F)(F)F)cc(=O)n(-c2ccc3snc(C(=O)NS(=O)(=O)/C=C/c4ccccc4)c3c2)c1=O`
Given back: 3.0

Asked: Determine its reported ORYSAT herbicidal rating (rice tolerance): `CC(C)N(C(C)C)S(=O)(=O)NC(=O)COc1ccccc1-c1nsc2ccc(-n3c(=O)cc(C(F)(F)F)n(C)c3=O)cc12`
Given back: 1.0

Asked: Determine its reported ORYSAT herbicidal rating (rice tolerance): `Cc1ccc(OC(C)(C)C(=O)O)c(-c2nsc3ccc(-n4c(=O)cc(C(F)(F)F)n(C)c4=O)cc23)c1`
Given back: 4.0

Asked: Determine its reported ORYSAT herbicidal rating (rice tolerance): `Cc1ccc(OC(C)(C)C(=O)OC(C)(C)C)c(-c2nsc3ccc(-n4c(=O)cc(C(F)(F)F)n(C)c4=O)cc23)c1`
Given back: 1.0

Asked: Determine its reported ORYSAT herbicidal rating (rice tolerance): `Cn1c(C(F)(F)F)cc(=O)n(-c2ccc3snc(C(C)(C)C(=O)O)c3c2)c1=O`
Given back: 7.0

Asked: Determine its reported ORYSAT herbicidal rating (rice tolerance): `Cn1c(C(F)(F)F)cc(=O)n(-c2ccc3snc(C(C)(C)C(N)=O)c3c2)c1=O`
Given back: 3.0

Asked: Determine its reported ORYSAT herbicidal rating (rice tolerance): `Cn1c(C(F)(F)F)cc(=O)n(-c2ccc3snc(C(C)(C)C(=O)NS(C)(=O)=O)c3c2)c1=O`
Given back: 4.0

Asked: Determine its reported ORYSAT herbicidal rating (rice tolerance): `C=CCOc1c(I)cc(C)cc1-c1nsc2ccc(-n3c(=O)cc(C(F)(F)F)n(C)c3=O)cc12`
Given back: 4.0

Asked: Determine its reported ORYSAT herbicidal rating (rice tolerance): `C=CCOC(=O)C(C)(C)c1nsc2ccc(-n3c(=O)cc(C(F)(F)F)n(C)c3=O)cc12`
Given back: 8.0

Asked: Determine its reported ORYSAT herbicidal rating (rice tolerance): `Cn1c(C(F)(F)F)cc(=O)n(-c2ccc3snc(C(=O)NS(=O)(=O)CCc4ccccc4)c3c2)c1=O`
Given back: 4.0

Asked: Determine its reported ORYSAT herbicidal rating (rice tolerance): `Cn1c(C(F)(F)F)cc(=O)n(-c2ccc3snc(C(=O)NS(=O)(=O)Cc4ccc(Cl)cc4)c3c2)c1=O`
Given back: 5.0

Asked: Determine its reported ORYSAT herbicidal rating (rice tolerance): COC(=O)C(C)Oc1cc(Cl)c(C)cc1-c1nsc2ccc(-n3c(=O)cc(C(F)(F)F)n(C)c3=O)cc12 (centres unmarked)
Given back: 2.0

Asked: Determine its reported ORYSAT herbicidal rating (rice tolerance): `COc1cc(Cl)c(C)cc1-c1nsc2ccc(-n3c(=O)cc(C(F)(F)F)n(C)c3=O)cc12`
Given back: 1.5

Asked: Determine its reported ORYSAT herbicidal rating (rice tolerance): `COC(=O)C(C)(C)c1nsc2ccc(-n3c(=O)cc(C(F)(F)F)n(C)c3=O)cc12`
Given back: 8.5

Asked: Determine its reported ORYSAT herbicidal rating (rice tolerance): `Cc1ccc(CS(=O)(=O)NC(=O)c2nsc3ccc(-n4c(=O)cc(C(F)(F)F)n(C)c4=O)cc23)cc1`
Given back: 2.0

Asked: Determine its reported ORYSAT herbicidal rating (rice tolerance): `CSCOCc1nsc2ccc(-n3c(=O)cc(C(F)(F)F)n(C)c3=O)cc12`
Given back: 6.0

Asked: Determine its reported ORYSAT herbicidal rating (rice tolerance): `CC(C)c1nsc2ccc(-n3c(=O)cc(C(F)(F)F)n(C)c3=O)cc12`
Given back: 7.5

Asked: Determine its reported ORYSAT herbicidal rating (rice tolerance): `CN(C(=O)c1nsc2ccc(-n3c(=O)cc(C(F)(F)F)n(C)c3=O)cc12)S(=O)(=O)Cc1ccccc1`
Given back: 0.0

Asked: Determine its reported ORYSAT herbicidal rating (rice tolerance): `Cn1c(C(F)(F)F)cc(=O)n(-c2ccc3snc(C(C)(C)C(=O)OCc4ccccn4)c3c2)c1=O`
Given back: 4.0

Asked: Determine its reported ORYSAT herbicidal rating (rice tolerance): `COC(=O)c1nsc2cc(F)c(-n3c(=O)cc(C(F)(F)F)n(C)c3=O)cc12`
Given back: 9.0

Asked: Determine its reported ORYSAT herbicidal rating (rice tolerance): `CC(C)N(C(C)C)S(=O)(=O)NC(=O)c1nsc2ccc(-n3c(=O)cc(C(F)(F)F)n(C)c3=O)cc12`
Given back: 2.0

Asked: Determine its reported ORYSAT herbicidal rating (rice tolerance): `CC(C)NS(=O)(=O)NC(=O)c1nsc2ccc(-n3c(=O)cc(C(F)(F)F)n(C)c3=O)cc12`
Given back: 5.0

Asked: Determine its reported ORYSAT herbicidal rating (rice tolerance): `CN(C)S(=O)(=O)NC(=O)c1nsc2ccc(-n3c(=O)cc(C(F)(F)F)n(C)c3=O)cc12`
Given back: 7.0

Asked: Determine its reported ORYSAT herbicidal rating (rice tolerance): `Cn1c(C(F)(F)F)cc(=O)n(-c2ccc3snc(C(=O)NS(=O)(=O)Cc4cccc(Cl)c4)c3c2)c1=O`
Given back: 5.0

Asked: Determine its reported ORYSAT herbicidal rating (rice tolerance): `Cn1c(C(F)(F)F)cc(=O)n(-c2ccc3snc(C(=O)NO)c3c2)c1=O`
Given back: 5.0

Asked: Determine its reported ORYSAT herbicidal rating (rice tolerance): `Cn1c(C(F)(F)F)cc(=O)n(-c2ccc3snc(COCOCc4ccccc4)c3c2)c1=O`
Given back: 5.0

Asked: Determine its reported ORYSAT herbicidal rating (rice tolerance): `COCOCc1nsc2ccc(-n3c(=O)cc(C(F)(F)F)n(C)c3=O)cc12`
Given back: 9.0

Asked: Determine its reported ORYSAT herbicidal rating (rice tolerance): `Cn1c(C(F)(F)F)cc(=O)n(-c2ccc3snc(C(=O)NS(N)(=O)=O)c3c2)c1=O`
Given back: 3.0
